Provide the reported protein stability index of each item.
B1: TOR1AIP2 (parent)
chain: YTSSQKVSPIQIDGAGRTWQDSDT

Variants of: B1
Experiment: protein stability index of a GFP-peptide fusion (GPS, HEK-293T) (PSI 1-6); higher = more stable;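 further: lentivirally expressed fusions sorted by FACS into six bins by GFP to DsRed ratio, PSI derived from sequencing read proportions per bin multiplied by bin number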
Conditions: c terminus: a fixed tail appended
Numbers only.

Please review the entries below; each comes with its answer.
residue_string="YTSSQKVSPIQIDGAGRTWVDSDT [Q20V]" reported_value=3.54
residue_string="YTSSQWVSPIQIDGAGRTWQDSDT [K6W]" reported_value=3.33
residue_string="YTSSQKVYPIQIDGAGRTWQDSDT [S8Y]" reported_value=2.16
residue_string="YMSSQKVSPIQIDGAGRTWQDSDT [T2M]" reported_value=3.9
residue_string="YTSSQKVSPIQIDGAGRTNQDSDT [W19N]" reported_value=4.04
residue_string="YTSSQKVSCIQIDGAGRTWQDSDT [P9C]" reported_value=3.02

Dear reader, for each entry below, please note its protein stability index.
1. YTSSQKVSPIQIDGAGRTWQVSDT [D21V]
2. YTSSQKVSPIQIDGAGRTWQDLDT [S22L]
3. YTSSQKVSPIQIWGAGRTWQDSDT [D13W]

## Result
1. 2.39
2. 2.35
3. 1.54

Consider the following items and state reported protein stability index for each.
1. YTSSRKVSPIQIDGAGRTWQDSDT [Q5R]
2. YTSSQKVSFIQIDGAGRTWQDSDT [P9F]
3. YTSSQIVSPIQIDGAGRTWQDSDT [K6I]
4. KTSSQKVSPIQIDGAGRTWQDSDT [Y1K]
5. YTSSQKVSPIQIDGAGRCWQDSDT [T18C]
6. YTSSQKVSPIQIDGAGRTWMDSDT [Q20M]

## Result
1. 3.35
2. 2.05
3. 3.67
4. 4.86
5. 2.9
6. 2.75

Value sought for every listed variant: protein stability index.
1. YTSSQPVSPIQIDGAGRTWQDSDT [K6P]
2. YTSSQKVSPIQIDGAIRTWQDSDT [G16I]
3. YTSSQSVSPIQIDGAGRTWQDSDT [K6S]
4. YTSSQKVSPIQIDGAGATWQDSDT [R17A]
5. YTSSQKVSPPQIDGAGRTWQDSDT [I10P]
6. YTSSQCVSPIQIDGAGRTWQDSDT [K6C]
7. YTSSQKVSPIQIDGAGRTWQDEDT [S22E]

## Result
[4.01, 2.54, 3.51, 3.66, 4.18, 3.04, 4.08]
